assay-remarks: Metabolic stability, pooled human liver microsome incubations
stated-conditions: pHLM, 9 min

[
  {
    "molecule": "COC(=O)C(NC(=O)c1nn(Cc2ccc(F)cc2)c2ccccc12)C(C)C (stereo in doubt) [(R)-AMB-FUBINACA (1)]",
    "output-unit": "%",
    "% parent compound remaining, Average": 34.5
  },
  {
    "molecule": "CC(C)[C@@H](NC(=O)c1nn(Cc2ccc(F)cc2)c2ccccc12)C(N)=O [(R)-AB-FUBINACA (8)]",
    "output-unit": "%",
    "% parent compound remaining, Average": 88.4
  },
  {
    "molecule": "COC(=O)[C@@H](NC(=O)c1nn(CCCCCF)c2ccccc12)C(C)(C)C [(S)-5F-MDMB-PINACA (2)]",
    "output-unit": "%",
    "% parent compound remaining, Average": 39.0
  },
  {
    "molecule": "C=CCCCn1nc(C(=O)N[C@H](C(=O)OC)C(C)(C)C)c2ccccc21 [(S)-MDMB-4en-PINACA (5)]",
    "output-unit": "%",
    "% parent compound remaining, Average": 36.7
  },
  {
    "molecule": "CC(C)[C@H](NC(=O)c1nn(Cc2ccc(F)cc2)c2ccccc12)C(N)=O [(S)-AB-FUBINACA (8)]",
    "output-unit": "%",
    "% parent compound remaining, Average": 85.0
  },
  {
    "molecule": "COC(=O)[C@@H](NC(=O)c1nn(CCCCF)c2ccccc12)C(C)(C)C [(S)-4F-MDMB-BINACA (4)]",
    "output-unit": "%",
    "% parent compound remaining, Average": 50.4
  },
  {
    "molecule": "COC(=O)[C@H](NC(=O)c1nn(CCCCCF)c2ccccc12)C(C)(C)C [(R)-5F-MDMB-PINACA (2)]",
    "output-unit": "%",
    "% parent compound remaining, Average": 44.4
  }
]

###

assay-remarks: Metabolic stability, pooled human liver microsome incubations
stated-conditions: pHLM, 15 min
metric-name: % parent compound remaining, Average

[
  {
    "compound": "C=CCCCn1cc(C(=O)N[C@H](C(=O)OC)C(C)(C)C)c2ccccc21 [(S)-MDMB-4en-PICA (12)]",
    "metric-name": "% parent compound remaining, Average",
    "meas-value": "28.5%"
  },
  {
    "compound": "COC(=O)[C@H](NC(=O)c1nn(CCCCF)c2ccccc12)C(C)(C)C [(R)-4F-MDMB-BINACA (4)]",
    "metric-name": "% parent compound remaining, Average",
    "meas-value": "48.4%"
  },
  {
    "compound": "C=CCCCn1cc(C(=O)N[C@H](C(=O)OC)C(C)C)c2ccccc21 [(S)-AMB-4en-PICA (7)]",
    "metric-name": "% parent compound remaining, Average",
    "meas-value": "18.0%"
  },
  {
    "compound": "COC(=O)[C@@H](NC(=O)c1cn(CC2CCCCC2)c2ccccc12)C(C)C [(S)-AMB-CHMICA (9)]",
    "metric-name": "% parent compound remaining, Average",
    "meas-value": "9.9%"
  }
]

###

Reported % parent compound remaining, Average by item:
Tested on: pooled human cryopreserved hepatocytes (pHHeps)
assay-remarks: Metabolic stability, pooled human cryopreserved hepatocyte incubations
stated-conditions: pHHeps, 45 min

[
  {
    "molecule": "COC(=O)C(NC(=O)c1nn(CCCCCF)c2ccccc12)C(C)C (stereo in doubt) [(R)-5F-AMB-PINACA (10)]",
    "output-unit": "%",
    "% parent compound remaining, Average": 0.9
  },
  {
    "molecule": "COC(=O)[C@@H](NC(=O)c1cn(CCCCCF)c2ccccc12)C(C)(C)C [(S)-5F-MDMB-PICA (3)]",
    "output-unit": "%",
    "% parent compound remaining, Average": 42.5
  },
  {
    "molecule": "C=CCCCn1nc(C(=O)N[C@@H](C(=O)OC)C(C)(C)C)c2ccccc21 [(R)-MDMB-4en-PINACA (5)]",
    "output-unit": "%",
    "% parent compound remaining, Average": 26.6
  },
  {
    "molecule": "COC(=O)[C@@H](NC(=O)c1nn(Cc2ccc(F)cc2)c2ccccc12)C(C)(C)C [(S)-MDMB-FUBINACA (6)]",
    "output-unit": "%",
    "% parent compound remaining, Average": 17.3
  }
]
